- assayed.system: EGFR (Homo sapiens)
- Sequence (P00533 25-1210): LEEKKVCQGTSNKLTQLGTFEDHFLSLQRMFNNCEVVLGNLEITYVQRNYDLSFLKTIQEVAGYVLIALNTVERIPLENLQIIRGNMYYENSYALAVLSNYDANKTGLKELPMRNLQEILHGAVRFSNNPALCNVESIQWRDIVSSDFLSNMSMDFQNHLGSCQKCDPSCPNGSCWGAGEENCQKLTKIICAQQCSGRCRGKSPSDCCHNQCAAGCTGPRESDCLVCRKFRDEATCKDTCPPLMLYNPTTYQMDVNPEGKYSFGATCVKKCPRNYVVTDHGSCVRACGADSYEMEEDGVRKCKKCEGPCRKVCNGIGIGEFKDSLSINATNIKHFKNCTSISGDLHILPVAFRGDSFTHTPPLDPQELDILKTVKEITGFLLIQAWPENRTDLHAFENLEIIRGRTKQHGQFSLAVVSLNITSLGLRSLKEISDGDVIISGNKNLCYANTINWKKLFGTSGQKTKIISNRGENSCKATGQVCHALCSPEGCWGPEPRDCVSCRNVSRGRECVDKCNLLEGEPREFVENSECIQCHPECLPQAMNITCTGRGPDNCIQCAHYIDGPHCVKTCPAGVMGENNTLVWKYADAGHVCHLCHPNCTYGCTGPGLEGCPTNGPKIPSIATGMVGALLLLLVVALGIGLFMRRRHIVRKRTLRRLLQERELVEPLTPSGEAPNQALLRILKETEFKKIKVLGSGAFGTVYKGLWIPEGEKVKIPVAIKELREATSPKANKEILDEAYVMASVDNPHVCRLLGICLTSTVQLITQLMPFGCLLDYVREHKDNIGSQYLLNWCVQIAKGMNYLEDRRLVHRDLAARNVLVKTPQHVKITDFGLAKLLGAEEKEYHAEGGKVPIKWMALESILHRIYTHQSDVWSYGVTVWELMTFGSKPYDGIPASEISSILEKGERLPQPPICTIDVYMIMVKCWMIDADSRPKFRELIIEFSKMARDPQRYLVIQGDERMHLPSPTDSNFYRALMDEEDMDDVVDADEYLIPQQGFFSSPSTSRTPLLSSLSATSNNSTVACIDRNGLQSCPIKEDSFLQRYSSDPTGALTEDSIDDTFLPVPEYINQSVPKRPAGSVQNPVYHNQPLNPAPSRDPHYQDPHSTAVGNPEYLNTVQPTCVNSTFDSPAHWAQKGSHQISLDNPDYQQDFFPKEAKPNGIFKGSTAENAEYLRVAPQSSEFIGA
- assay: Inhibition of a panel of kinases, in vitro HotSpot kinase assay: EGFR
- Format: biochemical
- assay.setup: D-compounds panel data; 1 μM ATP
pIC50: −log10 of the molar value.
Attribute: pIC50

{"molecule": "C[C@@H]1CC[C@H](NC(=O)c2ccc(C3CC3)cc2)CN1c1cnc(C(N)=O)c(Nc2ccc(N3CCN(C)CC3)c(F)c2)n1", "assayed.system": "EGFR (Homo sapiens)", "measurement.name": "pIC50", "reported": "< 5.00"}

Exam item: Find pIC50 for `C[C@@H]1[C@H](N2Cc3cc(Br)ccc3C2=O)CCCN1c1cnc(C(N)=O)c(Nc2cnn(C)c2)n1` on EGFR (Homo sapiens) and write it down.
Marked response: 6.00 to 7.00

Exam item: GET pIC50 | system: EGFR (Homo sapiens) | item: `C[C@@H]1[C@H](NC(=O)c2cnn(C(C)(C)C)c2)CCCN1c1cnc(C(N)=O)c(Nc2cnn(C)c2)n1`
Marked response: 5.00 to 6.00

Exam item: Fetch value of pIC50 on EGFR (Homo sapiens) for `C[C@@H]1[C@H](NC(=O)c2ccc(C3CC3)cc2F)CCCN1c1cnc(C(N)=O)c(Nc2ccc(N3CCN(C4CCCC4)CC3)cc2)n1` .
Marked response: 6.00 to 7.00

Exam item: Report pIC50 from EGFR (Homo sapiens) testing of `CN1CCN(C(=O)c2ccc(Nc3nc(N[C@H]4CC[C@@H](NC(=O)c5ccc(C6CC6)cc5F)CC4)cnc3C(N)=O)cc2)CC1`
Marked response: 6.00 to 7.00

Exam item: # return pIC50 of `C[C@@H]1[C@H](NC(=O)c2ccc(C(C)(C)C)s2)CCCN1c1cnc(C(N)=O)c(Nc2cnn(C)c2)n1` (system: EGFR (Homo sapiens))
Marked response: 5.00 to 6.00

Exam item: Specify pIC50 for Cn1cc(Nc2nc(N3CC(NC(=O)c4ccc(C5CC5)cc4)CC(F)(F)C3)cnc2C(N)=O)cn1 (stereo in doubt) , system EGFR (Homo sapiens).
Marked response: 5.00 to 6.00

Exam item: # lookup: EGFR (Homo sapiens) pIC50, key = `C[C@@H]1C[C@H](NC(=O)c2ccc(C3CC3)cc2)CN(c2cnc(C(N)=O)c(Nc3cnn(C)c3)n2)C1`
Marked response: < 5.00

Exam item: GET pIC50 | system: EGFR (Homo sapiens) | item: Cc1cccc(-c2cnc(C3CCCN(c4cnc(C(N)=O)c(Nc5cnn(C)c5)n4)C3)[nH]2)c1 (stereo not shown)
Marked response: 5.00 to 6.00

Exam item: Look up EGFR (Homo sapiens) data: pIC50 of `CCn1cc(Nc2nc(N3CCC[C@@H](NC(=O)c4ccc(C5CC5)cc4)[C@H]3C)cnc2C(N)=O)cn1` , then report it.
Marked response: 6.00 to 7.00

Exam item: Find pIC50 for `C[C@@H]1[C@H](NC(=O)c2ccc(C3CC3)cc2F)CCCN1c1cnc(C(N)=O)c(Nc2ccc(N3CCN(C)CC3)cn2)n1` on EGFR (Homo sapiens) and write it down.
Marked response: < 5.00

Exam item: Give pIC50; test system EGFR (Homo sapiens); molecule `CN1CCN(c2ccc(Nc3nc(N4CCC[C@@H](n5ccc6cc(C7CC7)ccc6c5=O)C4)cnc3C(N)=O)cc2)CC1`
Marked response: < 5.00

Exam item: Determine reported pIC50 for `C[C@@H]1[C@H](NC(=O)c2ccc3c(cnn3C)c2)CCCN1c1cnc(C(N)=O)c(Nc2ccc(N3CCN(C)CC3)cc2)n1` ; test system: EGFR (Homo sapiens).
Marked response: 6.00 to 7.00
